Please respond with reported %Inh for every item in the list.
system: BRSK2; conditions: concentration: 1 μM, replicates: in singlicate; n = 1;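 also: KINOMEscan kinase panel screen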
# number only, unit % dropped from output

What does the record list as %Inh for COc1cccc(C(=O)Nc2cccc(Oc3ccc4nc(NC(=O)C5CC5)cn4n3)c2)c1 ? 0

# %Inh lookup, item c1ccc(Oc2ccc(Nc3ccnc4cc(-c5ccc(CNCCN6CCOCC6)o5)ccc34)cc2)nc1 0

What %Inh value was documented for this molecule, Cc1ccc(C(=O)N2CC[C@@H](O)C2)cc1-n1c(C)cc(OCc2ccc(F)cc2F)c(Br)c1=O ? 0

Item under review: COc1ccc(Nc2nccc(N3CCC(NC(=O)Nc4cccc(OC)c4)C3)n2)cc1 (stereo not shown) . Reported %Inh? 0

Param item = Cn1cc(-c2ccc3c(c2)CCN3C(=O)Cc2cccc(Cl)c2)c2c(N)ncnc21 ; retrieve measured %Inh. 0

Look up %Inh: c1ccc(-c2n[nH]cc2Nc2ccnc3ccccc23)nc1 0

Item Nc1ncc(-c2ccc3nccc(-c4ccncc4)c3c2)cc1S(=O)(=O)N1CCOCC1 has what recorded %Inh? 0

What value of %Inh has been recorded for this entry: COc1cccc(C2=C(Nc3ccc(Cl)c(C(=O)O)c3)C(=O)NC2=O)c1 0

Which %Inh value belongs to Nc1n[nH]c2cnc(-c3ccccc3)cc12 ? 7

%Inh for Cc1ccc(C(=O)Nc2ccc(Nc3ccnc4cc(-c5nccs5)ccc34)cc2O)cc1.Cl ? 0

Using the record for c1ccc(-c2cnc3nccnn23)cc1 , report its %Inh. 0

For Cl.Cl.NCC(NC(=O)c1cc(-c2ccccc2)c(-c2ccnc3[nH]ccc23)s1)c1ccccc1 (stereo not shown) , what is its reported %Inh? 0

GET /values?readout=%Inh&item= Cn1cc(-c2ccc3c(c2)CCN3C(=O)Cc2cccc(F)c2)c2c(N)ncnc21 67

Requested read-out: %Inh. Entry: CN(c1ccc(NC(=O)Nc2cc(C(F)(F)F)ccc2F)cc1)c1ccnc(Nc2ccc(S(N)(=O)=O)cc2)n1 8

Give its %Inh value. Item: Cl.NC(=O)c1cccc(Nc2nccc(Nc3ccc(Oc4c(Cl)cccc4Cl)c(Cl)c3)n2)c1 0

Reported %Inh, molecule CSc1cccc2c(-c3ccncn3)c(-c3ccc(F)cc3)nn12 : ____ 0

Look up %Inh for this molecule: CC(=O)N1CCN(c2ccc(Nc3nccc(-c4sc(C(C)C)nc4-c4cccc(NS(=O)(=O)c5cccc(Cl)c5)c4)n3)cn2)CC1 2

Entry CCc1ccc(-c2ccc3c(c2)-c2c(cnn2C)S(=O)(=O)N3C)cc1 : reported %Inh = ? 0

GET /values?readout=%Inh&item= COc1cc(Nc2nccc(-c3c(-c4cccc(NC(=O)c5c(F)cccc5F)c4)nn4ccccc34)n2)cc(OC)c1OC 13

Please look up its %Inh: Cc1ccc(S(=O)(=O)Nc2ccc(Nc3nccc(Nc4cccc5[nH]ncc45)n3)cc2)cc1 0

What value of measured %Inh is listed for O=C(Nc1cccc(-c2nn3ccccc3c2-c2ccnc(Nc3cccc(F)c3)n2)c1)c1c(F)ccc(F)c1Cl ? 0

Endpoint output: %Inh of C[C@@H]1CC[C@@H](C(=O)Nc2ccccc2)CN1c1cc(-c2ccc3c(N)n[nH]c3c2)nc(N)n1 . Value? 0

Quick one: %Inh of Cc1cccc(NC(=O)Nc2ccc(Oc3ncnc4ccn(C)c34)cc2)c1 ? 0

For COc1ccc(CNC(=O)NC2CCN(c3ccnc(Nc4ccc(F)cc4)n3)CC2)cc1 , what is its reported %Inh? 0

%Inh for O=C(Nc1cccc(Oc2ccc3nc(NC(=O)C4CC4)cn3n2)c1)c1ccccc1C(F)(F)F ? 0

Suppose we examine the molecule CCn1c(-c2nonc2N)nc2c(C#CC(C)(C)O)ncc(OCCCCN)c21.O=C(O)C(F)(F)F.O=C(O)C(F)(F)F ; what %Inh value has been reported? 0

Which %Inh value belongs to CC(=O)Nc1nc2cnc(Nc3cc(NC(=O)c4cccc(C5(C#N)CC5)c4Cl)ccc3C)nc2s1 ? 0

Suppose we examine the molecule CC(C)c1nc(-c2cccc(NS(=O)(=O)c3c(F)cccc3F)c2F)c(-c2ccnc(Nc3ccc(N4CCOCC4)nc3)n2)s1 ; what %Inh value has been reported? 75

Which %Inh is listed for Nc1ncc(-c2cccnc2)c2scc(-c3ccc4c(c3)CCN4C(=O)Cc3ccccc3)c12 ? 0

Report %Inh for COCCOCCOc1cc2ncc3c4ccc(C#N)cc4[nH]c3c2cc1OC please. 12

Request the reported %Inh associated with Cc1ccc(F)c(C(=O)Nc2cccc(-c3nn4ccccc4c3-c3ccnc(Nc4cccc(F)c4)n3)c2)c1F 0
